FYI, the data here is from ChEMBL document CHEMBL1124186.

Form field: MIC (one value per entry).
- Tested on: Haemophilus influenzae
- PROTOCOL NOTES: In vitro antimicrobial activity against Haemophilus influenzae.
- Type: functional
Your answer is read as µg/mL, so omit the unit and give the number.

Solved entries:
>>> numeric_result("CC[C@H]1C[C@@H](C)C(=O)/C=C/C(C)=C/[C@H](CO[C@@H]2O[C@H](C)[C@@H](O)[C@@H](OC)[C@H]2OC)[C@@H](CC)OC(=O)C[C@@H](O)[C@H](C)[C@H]1O[C@@H]1O[C@H](C)[C@@H](O)[C@H](N(C)C)[C@H]1O")
16
>>> numeric_result("CC[C@H]1OC(=O)C[C@@H](O)[C@H](C)[C@@H](O[C@@H]2O[C@H](C)[C@@H](O)[C@H](N(C)C)[C@H]2O)[C@@H](CCO)C[C@@H](C)C(=O)/C=C/C(C)=C/[C@@H]1CO[C@@H]1O[C@H](C)[C@@H](O)[C@@H](O)[C@H]1OC")
32
>>> numeric_result("CC[C@H]1OC(=O)C[C@@H](O)[C@H](C)[C@@H](O[C@@H]2O[C@H](C)[C@@H](O)[C@H](N(C)C)[C@H]2O)[C@@H](CC=O)C[C@@H](C)C(=O)/C=C/C(C)=C/[C@@H]1C")
1

Okay, now this compound:
Fill in MIC for `CC[C@H]1OC(=O)C[C@@H](O)[C@H](C)[C@@H](O[C@@H]2O[C@H](C)[C@@H](O)[C@H](N(C)C)[C@H]2O)[C@@H](CCO[N+](=O)[O-])C[C@@H](C)C(=O)/C=C/C(C)=C/[C@@H]1CO[C@@H]1O[C@H](C)[C@@H](O)[C@@H](OC)[C@H]1OC` tested with Haemophilus influenzae.
16

====

- Test system: Haemophilus influenzae
- PROTOCOL NOTES: In vitro antimicrobial activity against Haemophilus influenzae.
- Assay type: functional
# Lookup of reported MIC keyed by entry
Respond numerically; units are µg/mL and should not be typed.

>>> numeric_result("CC[C@H]1OC(=O)C[C@@H](O)[C@H](C)[C@@H](O[C@@H]2O[C@H](C)[C@@H](O)[C@H](N(C)C)[C@H]2O)[C@@H](CCOc2ccc(CO)cc2)C[C@@H](C)C(=O)/C=C/C(C)=C/[C@@H]1CO[C@@H]1O[C@H](C)[C@@H](O)[C@@H](OC)[C@H]1OC")
64
>>> numeric_result("CC[C@H]1OC(=O)C[C@@H](O)[C@H](C)[C@@H](O[C@@H]2O[C@H](C)[C@@H](O)[C@H](N(C)C)[C@H]2O)[C@@H](CCOc2cccc(Oc3ccccc3)c2)C[C@@H](C)C(=O)/C=C/C(C)=C/[C@@H]1CO[C@@H]1O[C@H](C)[C@@H](O)[C@@H](OC)[C@H]1OC")
16

Here is another compound to look at.
Hello, please tell me recorded MIC for this one: `CC[C@H]1OC(=O)C[C@@H](O)[C@H](C)[C@@H](O[C@@H]2O[C@H](C)[C@@H](O)[C@H](N(C)C)[C@H]2O)[C@@H](CCOc2cccnc2)C[C@@H](C)C(=O)/C=C/C(C)=C/[C@@H]1CO[C@@H]1O[C@H](C)[C@@H](O)[C@@H](OC)[C@H]1OC`
16

====

- Test system: Staphylococcus aureus
- PROTOCOL NOTES: In vitro antimicrobial activity against aerobic bacteria Staphylococcus aureus X400
- Type: functional
For each record, check the reported MIC: if it is below 0.5 µg/mL write true, else write false.

>>> answer_label("CC[C@H]1OC(=O)C[C@@H](O)[C@H](C)[C@@H](O[C@@H]2O[C@H](C)[C@@H](O)[C@H](N(C)C)[C@H]2O)[C@@H](CCCl)C[C@@H](C)C(=O)/C=C/C(C)=C/[C@@H]1CO[C@@H]1O[C@H](C)[C@@H](O)[C@@H](OC)[C@H]1OC")
"true"
>>> answer_label("CC[C@H]1OC(=O)C[C@@H](O)[C@H](C)[C@@H](O[C@@H]2O[C@H](C)[C@@H](O[C@H]3C[C@@](C)(O)[C@@H](O)[C@H](C)O3)[C@H](N(C)C)[C@H]2O)[C@@H](CC=O)C[C@@H](C)C(=O)/C=C/C(C)=C/[C@@H]1CO[C@@H]1O[C@H](C)[C@@H](O)[C@@H](OC)[C@H]1OC")
"false"
>>> answer_label("CC[C@H]1OC(=O)C[C@@H](O)[C@H](C)[C@@H](O[C@@H]2O[C@H](C)[C@@H](O)[C@H](N(C)C)[C@H]2O)[C@@H](CC=O)C[C@@H](C)C(=O)/C=C/C(C)=C/[C@@H]1CO[C@@H]1O[C@H](C)[C@@H](O)[C@@H](OC)[C@H]1OC")
"false"
>>> answer_label("CC[C@H]1OC(=O)C[C@@H](O)[C@H](C)[C@@H](O[C@@H]2O[C@H](C)[C@@H](O[C@H]3C[C@@](C)(O)[C@@H](O)[C@H](C)O3)[C@H](N(C)C)[C@H]2O)[C@@H](CC=O)C[C@@H](C)C(=O)/C=C/C(C)=C/[C@@H]1CO")
"false"
>>> answer_label("CC[C@H]1OC(=O)C[C@@H](O)[C@H](C)[C@@H](O[C@@H]2O[C@H](C)[C@@H](O)[C@H](N(C)C)[C@H]2O)[C@@H](CCOc2ccccc2)C[C@@H](C)C(=O)/C=C/C(C)=C/[C@@H]1CO[C@@H]1O[C@H](C)[C@@H](O)[C@@H](OC)[C@H]1OC")
"true"

With those in mind, consider the next compound.
hey, is MIC for `CC[C@H]1OC(=O)C[C@@H](O)[C@H](C)[C@@H](O[C@@H]2O[C@H](C)[C@@H](O)[C@H](N(C)C)[C@H]2O)[C@@H](CCOc2ccc(-c3ccccc3)cc2)C[C@@H](C)C(=O)/C=C/C(C)=C/[C@@H]1CO[C@@H]1O[C@H](C)[C@@H](O)[C@@H](OC)[C@H]1OC` lower than 0.5 µg/mL or not?
true

====

- System: Staphylococcus epidermidis
- PROTOCOL NOTES: In vitro antimicrobial activity against Staphylococcus epidermidis EPI1
- Assay type: functional
PROPERTY NAME: MIC (µg/mL)
Hi! Could you send only the number? It should be in µg/mL, unit omitted.

>>> numeric_result("CC[C@H]1OC(=O)C[C@@H](O)[C@H](C)[C@@H](O[C@@H]2O[C@H](C)[C@@H](O)[C@H](N(C)C)[C@H]2O)[C@@H](CCNCCc2ccccc2)C[C@@H](C)C(=O)/C=C/C(C)=C/[C@@H]1CO")
4

Please turn your attention to the following entry.
Give the value of MIC reported for the following: `CC[C@H]1OC(=O)C[C@@H](O)[C@H](C)[C@@H](O[C@@H]2O[C@H](C)[C@@H](O)[C@H](N(C)C)[C@H]2O)[C@@H](CCOC(C)=O)C[C@@H](C)C(=O)/C=C/C(C)=C/[C@@H]1CO[C@@H]1O[C@H](C)[C@@H](O)[C@@H](OC)[C@H]1OC`
0.25

====

Each record here notes measured MIC.
- System: Haemophilus influenzae
- PROTOCOL NOTES: In vitro antimicrobial activity against Haemophilus influenzae.
- Type: functional
Provide only the numeric value, understood in mg/L.

Solved cases below.
>>> numeric_result("CC[C@H]1OC(=O)C[C@@H](O)[C@H](C)[C@@H](O[C@@H]2O[C@H](C)[C@@H](O)[C@H](N(C)C)[C@H]2O)[C@@H](CCN2C(=O)c3ccccc3C2=O)C[C@@H](C)C(=O)/C=C/C(C)=C/[C@@H]1CO[C@@H]1O[C@H](C)[C@@H](O)[C@@H](OC)[C@H]1OC")
32
>>> numeric_result("CC[C@H]1OC(=O)C[C@@H](O)[C@H](C)[C@@H](O[C@@H]2O[C@H](C)[C@@H](O)[C@H](N(C)C)[C@H]2O)[C@@H](CCS(=O)(=O)c2ccc(C)cc2)C[C@@H](C)C(=O)/C=C/C(C)=C/[C@@H]1CO[C@@H]1O[C@H](C)[C@@H](O)[C@@H](OC)[C@H]1OC")
16

Please give measured MIC of the following entry: `CC[C@H]1OC(=O)C[C@@H](O)[C@H](C)[C@@H](O[C@@H]2O[C@H](C)[C@@H](O)[C@H](N(C)C)[C@H]2O)[C@@H](CCN2C(=O)c3ccccc3C2=O)C[C@@H](C)C(=O)/C=C/C(C)=C/[C@@H]1CO`
64

====

- System: Staphylococcus aureus
- PROTOCOL NOTES: In vitro antimicrobial activity against Staphylococcus aureus X1
- Type: functional
# log10 MIC per entry
// units: µg/mL (pre-log); metric: MIC; scale: log10

Use these answered entries as a reference point.
>>> numeric_result("CC[C@H]1OC(=O)C[C@@H](O)[C@H](C)[C@@H](O[C@@H]2O[C@H](C)[C@@H](O)[C@H](N(C)C)[C@H]2O)[C@@H](C)C[C@@H](C)C(=O)/C=C/C(C)=C/[C@@H]1CO[C@@H]1O[C@H](C)[C@@H](O)[C@@H](OC)[C@H]1OC")
-0.60
>>> numeric_result("CC[C@H]1OC(=O)C[C@@H](O)[C@H](C)[C@@H](O[C@@H]2O[C@H](C)[C@@H](O)[C@H](N(C)C)[C@H]2O)[C@@H](CCN2C(=O)c3ccccc3C2=O)C[C@@H](C)C(=O)/C=C/C(C)=C/[C@@H]1CO")
0.60
>>> numeric_result("CC[C@H]1OC(=O)C[C@@H](O)[C@H](C)[C@@H](O[C@@H]2O[C@H](C)[C@@H](O)[C@H](N(C)C)[C@H]2O)[C@@H](CCN)C[C@@H](C)C(=O)/C=C/C(C)=C/[C@@H]1CO[C@@H]1O[C@H](C)[C@@H](O)[C@@H](OC)[C@H]1OC")
0.60
>>> numeric_result("CC[C@H]1OC(=O)C[C@@H](O)[C@H](C)[C@@H](O[C@@H]2O[C@H](C)[C@@H](O[C@H]3C[C@@](C)(O)[C@@H](O)[C@H](C)O3)[C@H](N(C)C)[C@H]2O)[C@@H](CCOc2ccccc2)C[C@@H](C)C(=O)/C=C/C(C)=C/[C@@H]1CO[C@@H]1O[C@H](C)[C@@H](O)[C@@H](OC)[C@H]1OC")
0.00

Quickly give me recorded log10 MIC for `CC[C@H]1OC(=O)C[C@@H](O)[C@H](C)[C@@H](O[C@@H]2O[C@H](C)[C@@H](O[C@H]3C[C@@](C)(O)[C@@H](O)[C@H](C)O3)[C@H](N(C)C)[C@H]2O)[C@@H](CCO)C[C@@H](C)C(=O)/C=C/C(C)=C/[C@@H]1CO[C@@H]1O[C@H](C)[C@@H](O)[C@@H](O)[C@H]1OC`
1.20

Return reported log10 MIC. Input molecule: `CCOC(=O)NN(CC[C@H]1C[C@@H](C)C(=O)/C=C/C(C)=C/[C@H](CO[C@@H]2O[C@H](C)[C@@H](O)[C@@H](OC)[C@H]2OC)[C@@H](CC)OC(=O)C[C@@H](O)[C@H](C)[C@H]1O[C@@H]1O[C@H](C)[C@@H](O[C@H]2C[C@@](C)(O)[C@@H](O)[C@H](C)O2)[C@H](N(C)C)[C@H]1O)C(=O)OCC`
0.30

For `CC[C@H]1OC(=O)C[C@@H](O)[C@H](C)[C@@H](O[C@@H]2O[C@H](C)[C@@H](O[C@H]3C[C@@](C)(O)[C@@H](O)[C@H](C)O3)[C@H](N(C)C)[C@H]2O)[C@@H](CCCl)C[C@@H](C)C(=O)/C=C/C(C)=C/[C@@H]1CO[C@@H]1O[C@H](C)[C@@H](O)[C@@H](OC)[C@H]1OC` , write its log10 MIC.
0.00
